Give normalized growth for every item shown.
Experiment: chemical genetic growth profiling, strain panel (AID 1159580);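 note: tested at 20 µM; growth read once vehicle control cultures reached saturation at 30 °C; 1 = growth at the plate median or of vehicle wells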
Conditions: S. cerevisiae deletion strains, growth OD, locus YMR125W, strain sto1, stronger effect = lower value
Out of some 5,500 compounds screened, about 2,000 (36%) were called active. Roughly 18% stayed inconclusive and do not appear here. Some of the results follow. Where a SMILES comes first, the peptide text is derived from it. Bridges are numbered along the chain shown (N, C = ends). Side-chain parts run from the residue outwards. [ ]: non-standard residue; d: D form. The star is where a group is joined. Octanoyl(6-Me) = CCC(C)CCCCC(=O)*; X1 = CCC(C)C(N)C1=NC(C(=O)*)CS1; Orn = NCCC[CH](N)C(=O)O; Dab = NCC[CH](N)C(=O)O

COc1cc2c(cc1O)CCNC2C (stereo not given) = 1 (inactive)

Hey, quick one: what's normalized growth for each of these?
1. CC(=O)N[C@@H](Cc1c[nH]c2ccccc12)C(=O)O
2. C[C@]12CCC(=O)C=C1CCC1C2[C@@H](O)C[C@@]2(C)C1CC[C@]2(O)C(=O)COC(=O)CCC(=O)O (stereo not given in full)
3. CCC(C)CCCCC(=O)NC(CCN)C(=O)NC(C(=O)NC(CCN)C(=O)NC1CCNC(=O)C(C(C)O)NC(=O)C(CCN)NC(=O)C(CCN)NC(=O)C(CC(C)C)NC(=O)C(Cc2ccccc2)NC(=O)C(CCN)NC1=O)C(C)O (stereo not given) ({Octanoyl(6-Me)}-[Dab]T[Dab][Dab][Dab]FL[Dab][Dab]T; lactam 4-C; configuration not given here)
4. COC1(C)CCC2OC2(C)CCC2C1CC2(C)C (stereo not given)
5. COc1cc(-c2coc3cc(O[C@@H]4O[C@H](CO)[C@@H](O)[C@H](O)[C@H]4O)c(OC)c(O)c3c2=O)cc(O)c1OC
6. OCc1c[nH]c2ccccc12

### Response
["0.973 (inactive)", "1.01 (inactive)", "0.993 (inactive)", "0.997 (inactive)", "0.99 (inactive)", "0.974 (inactive)"]

List the reported normalized growth of each molecule below.
1. CNC(Cc1c[nH]c2ccccc12)C(=O)O (stereo not given)
2. CC(C)CC1NC(=O)C(CCCN)NC(=O)C(C(C)C)NC(=O)C2CCCN2C(=O)C(Cc2ccccc2)NC(=O)C(CC(C)C)NC(=O)C(CCCN)NC(=O)C(C(C)C)NC(=O)C2CCCN2C(=O)C(Cc2ccccc2)NC1=O (stereo not given) (cyclo(FPV[Orn]LFPV[Orn]L); configuration not given here)

### Response
0.973 (inactive)
0.999 (inactive)

### Prompt Dear colleague, I am looking for the recorded normalized growth of the following molecule: CCC(C)C(N)C1=NC(C(=O)NC(CC(C)C)C(=O)NC(CCC(=O)O)C(=O)NC(C(=O)NCCCCC2NC(=O)C(CC(N)=O)NC(=O)C(CC(=O)O)NC(=O)C(Cc3cnc[nH]3)NC(=O)C(Cc3ccccc3)NC(=O)C(C(C)CC)NC(=O)C(CCCN)NC2=O)C(C)CC)CS1 (stereo not drawn) (cyclo(DNK([Ile-Glu-Leu-X1])[Orn]IFH); configuration not given here)
### Response 1.02 (inactive)

* * *

Assay: chemical genetic growth profiling, strain panel (AID 1159580)
Settings: S. cerevisiae deletion strains, growth OD, locus YLR371W, strain rom2
In all, about 5,500 compounds went through this assay and about 2,000 (36%) were called active. Not shown: some 18% with an inconclusive outcome. No stated cut-off is given here; in the data, active means normalized growth mostly below about 0.91 (no sharp cut-off); inconclusive means no clear call, values can overlap the other calls; inactive means mostly above about 0.92. The list shows a part of the results.
// one of TRUE for active, FALSE for inactive, no free text

# count of solved cases: 8
CCC1(CC)C(=O)C=CNC1=O = FALSE
CCN(CC)CCNC(=O)c1cc(Cl)c(N)cc1OC = FALSE
CC(N)C(O)c1ccc(O)c(O)c1 (centres undefined) = FALSE
COc1cc2cc3c4cc(OC)c(OC)cc4cc[n+]3c(C)c2cc1OC = FALSE
CCOc1ccc(C(=O)c2cc(O)c(OC)c(OC)c2O)cc1 = FALSE
CN1CCN(CCCN2c3ccccc3Sc3ccc(C(F)(F)F)cc32)CC1 = TRUE
CCOc1ccc(NC(C)=O)cc1 = FALSE
COc1cc2c(cc1OC)[C@@]13CCN4CC5=CCOC6CC(=O)N2C1[C@H]6[C@H]5C[C@H]43 (some centres undefined) = FALSE

# ---- query compound ----
### Prompt Look up the recorded call for COc1cc2c(cc1OC)-c1c(oc3c4c(ccc3c1=O)OC(C(C)C)C4)CO2 (centres undefined) in this test.
### Response FALSE

* * *

Experiment: chemical genetic growth profiling, strain panel (AID 1159580);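 note: tested at 20 µM; growth read once vehicle control cultures reached saturation at 30 °C; 1 = growth at the plate median or of vehicle wells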
Settings: S. cerevisiae deletion strains, growth OD, locus YLR039C, strain RIC1, stronger effect = lower value
The whole screen tested about 5,500 compounds, of which about 2,000 (36%) were called active. Inconclusive results (about 18%) are left out. The list shows a part of the results.
assay-endpoint: normalized growth
One number for each entry.

Some compounds with known normalized growth results, for comparison:
CC(=O)OCC1=C(C(=O)O)N2C(=O)[C@@H](NC(=O)CCCC(N)C(=O)O)C2SC1 (stereo partly drawn) = 1.02
COc1cccc(NC(=O)NC2Cc3ccccc3C2)c1 = 0.996
Cc1onc(-c2ccccc2Cl)c1C(=O)N[C@@H]1C(=O)N2[C@@H]1SC(C)(C)[C@@H]2C(=O)O = 1.02
COc1cc2nc(-c3cccs3)oc(=O)c2cc1OC = 0.999
CC(=O)Oc1cccc2c1C(=O)c1c(OC(C)=O)cc(C(=O)O)cc1C2=O = 1.02

// each compound listed below needs its normalized growth
1. CC(N)C(O)c1ccc(O)c(O)c1 (stereo not drawn)
2. COc1cccc(OC)c1C(=O)N[C@@H]1C(=O)N2[C@@H]1SC(C)(C)[C@@H]2C(=O)O
3. COc1cc(-c2coc3cc(O[C@@H]4O[C@H](CO)[C@@H](O)[C@H](O)[C@H]4O)c(OC)c(O)c3c2=O)cc(O)c1OC

### Response
1: 1.01; 2: 1; 3: 1.02

* * *

Assay: chemical genetic growth profiling, strain panel (AID 1159580);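 note: tested at 20 µM; growth read once vehicle control cultures reached saturation at 30 °C; 1 = growth at the plate median or of vehicle wells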
Details: S. cerevisiae deletion strains, growth OD, locus YNL183C, strain NPR1, stronger effect = lower value
Screen size: about 5,500 compounds; about 2,000 (36%) were called active. Roughly 18% stayed inconclusive and do not appear here. The list shows a part of the results.
Consider the following compounds; for each one, report its normalized growth.
Give bare numbers.

C/C(=N/NC(=O)c1ccc(C(C)(C)C)cc1)c1ccccc1O = 1.01
CC(=O)NS(=O)(=O)c1ccc(NC(=O)c2ccccc2C(=O)O)cc1 = 0.91
Cc1cc(=O)n(-c2ccccc2)n1C = 0.987

// each compound listed below needs its normalized growth
1. O=C(CCBr)N1CCN(C(=O)CCBr)CC1
2. O=C1c2ccccc2C(=O)C1c1ccccc1
3. COc1ccc(C2C(=O)c3ccccc3C2=O)cc1
4. CCN(CC)CCNC(=O)c1cc(Cl)c(N)cc1OC

### Response
1. 0.936
2. 0.939
3. 0.882
4. 0.991

# map each compound to its normalized growth
1. CO[C@H]1C[C@H](O[C@H]2[C@H](C)[C@@H](OC3O[C@H](C)C[C@H](N(C)C)[C@H]3OC(C)=O)[C@@H](C)C[C@]3(CO3)C(=O)[C@H](C)[C@@H](OC(C)=O)[C@@H](C)[C@@H](C)OC(=O)[C@@H]2C)O[C@@H](C)[C@@H]1OC(C)=O (stereo partly drawn)
2. Cc1onc(-c2ccccc2Cl)c1C(=O)N[C@@H]1C(=O)N2[C@@H]1SC(C)(C)[C@@H]2C(=O)O
3. C#C[C@]1(O)CCC2C3CCC4=Cc5oncc5C[C@]4(C)C3CC[C@@]21C (stereo partly drawn)
4. C1CCC(C(CC2CCCCN2)C2CCCCC2)CC1 (stereo not drawn)
5. O=c1c(O)c(-c2ccc(O)c(O)c2)oc2cc(O)ccc12
6. CCCCc1nc(Cl)c(CO)n1Cc1ccc(-c2ccccc2-c2nn[nH]n2)cc1

### Response
0.932
0.968
0.95
0.976
0.357
1.01

* * *

Assay: chemical genetic growth profiling, strain panel (AID 1159580);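 note: tested at 20 µM; growth read once vehicle control cultures reached saturation at 30 °C; 1 = growth at the plate median or of vehicle wells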
Details: S. cerevisiae deletion strains, growth OD, locus YGR092W, strain DBF2, stronger effect = lower value
Among all 5,500 compounds or so, about 2,000 (36%) were called active. About 18% were inconclusive and are not listed. This is one part of the list.
Answer each item with its documented normalized growth.
One number for each entry.

// worked examples, normalized growth included
Cc1ccc(OCc2n[nH]c(=S)n2Cc2ccccc2)c2c1CCC2 = 0.495
S=C(N/N=C\c1cccs1)NC1CC2CCC1C2 (configuration not stated) = 0.794
COc1ccc(C2CC(c3ccc(C)cc3C)=NN2C(C)=O)cc1 (configuration not stated) = 0.909
O=C(Nc1cccnc1)c1cc2c(s1)-c1ccccc1CC2 = 0.524
Cn1nc(-c2ccccc2)c(O)c(N=Nc2ccccc2)c1=O = 0.913
O=c1c(-c2ccccc2)c(O)c2cccc3c4ccccc4n1c23 = 0.11

Now consider a different compound.
### Prompt Consider the compound shown here: `FC(F)(F)c1cc(-c2ccc(Cl)cc2)n[nH]1` What is its recorded normalized growth?
### Response 0.807
